- Species: Rattus norvegicus
- method_notes: Open TG-GATES - Regimen: Single
- Type: toxicity, organism-based, Sprague-Dawley
- Parameters: regimen Single, gender Male, age 6 weeks
- test_parameters: in vivo, po, 1000 mg/kg, 3 h, tissue Blood, route gavage, dose level High
metric: Mono (%)
The reply should be a number in %, with the unit left off.

COC(=O)C1=C(C)NC(C)=C(C(=O)OC)C1c1ccccc1[N+](=O)[O-] : 4.6
CNC(=C[N+](=O)[O-])NCCSCc1ccc(CN(C)C)o1 : 2.4
CN/C(=N/CCSCc1nc[nH]c1C)NC#N : 3
Cc1nnc2n1-c1ccc(Cl)cc1C(c1ccccc1Cl)=NC2 : 3.2

Consider the record given below.
O=C(OC[C@H]1O[C@@H](OC(=O)c2cc(O)c(O)c(OC(=O)c3cc(O)c(O)c(O)c3)c2)[C@H](OC(=O)c2cc(O)c(O)c(OC(=O)c3cc(O)c(O)c(O)c3)c2)[C@@H](OC(=O)c2cc(O)c(O)c(OC(=O)c3cc(O)c(O)c(O)c3)c2)[C@@H]1OC(=O)c1cc(O)c(O)c(OC(=O)c2cc(O)c(O)c(O)c2)c1)c1cc(O)c(O)c(OC(=O)c2cc(O)c(O)c(O)c2)c1 yielded Mono of 4.8

----------
- Species on record: Rattus norvegicus
- method_notes: Open TG-GATES - Regimen: Daily Repeat
- Type: toxicity, organism-based, Sprague-Dawley
- Parameters: regimen Daily Repeat, gender Male, age 6 weeks
- test_parameters: in vivo, po, 0 mg/kg, […], tissue Liver, route gavage, dose level Control, time 7 day
metric: LIVER (g)
Answer in g, number only, no unit symbol.

Brc1ccccc1 : 11
CC(C)NNC(=O)c1ccncc1 : 11.2
Cc1nnc2n1-c1ccc(Cl)cc1C(c1ccccc1Cl)=NC2 : 11.8

Consider the record given below.
GET /value?item= CNC(=C[N+](=O)[O-])NCCSCc1ccc(CN(C)C)o1 &field=LIVER returns 12.5

----------
AST values, listed per item
- Organism: Rattus norvegicus
- method_notes: Open TG-GATES - Regimen: Daily Repeat
- Format: toxicity, organism-based, Sprague-Dawley
- Set-up: regimen Daily Repeat, gender Male, age 6 weeks
- test_parameters: in vivo, po, 0 mg/kg, […], tissue Plasma, route gavage, dose level Control, time 7 day
Write the value in IU/L as a bare number.

Nc1c2c(nc3ccccc13)CCCC2 : 67.6
COC(=O)C1=C(C)NC(C)=C(C(=O)OC)C1c1ccccc1[N+](=O)[O-] : 68.6
CN(C)CCC(c1ccc(Cl)cc1)c1ccccn1 (configuration not stated) : 65.8

The compound listed as CCCc1cc(=O)[nH]c(=S)[nH]1 shows AST equal to 67.4

So for O=C(OC[C@H]1O[C@@H](OC(=O)c2cc(O)c(O)c(OC(=O)c3cc(O)c(O)c(O)c3)c2)[C@H](OC(=O)c2cc(O)c(O)c(OC(=O)c3cc(O)c(O)c(O)c3)c2)[C@@H](OC(=O)c2cc(O)c(O)c(OC(=O)c3cc(O)c(O)c(O)c3)c2)[C@@H]1OC(=O)c1cc(O)c(O)c(OC(=O)c2cc(O)c(O)c(O)c2)c1)c1cc(O)c(O)c(OC(=O)c2cc(O)c(O)c(O)c2)c1 , the logged AST turned out to be 60.6

Summary for this compound, NC1=NC(=O)C(c2ccccc2)O1 (configuration not stated) : AST is 68

Value of measured AST for the entry CCOc1ccc(NC(C)=O)cc1 : 65.8

----------
- Species: Rattus norvegicus
- method_notes: Open TG-GATES - Regimen: Single
- Format: toxicity, organism-based, Sprague-Dawley
- Parameters: regimen Single, gender Male, age 6 weeks
- test_parameters: in vivo, po, 1000 mg/kg, 3 h, tissue Plasma, route gavage, dose level High
metric: RALB (g/dL)
Report the figure in g/dL without appending any unit label.

Measured RALB, CNC(=C[N+](=O)[O-])NCCSCc1ccc(CN(C)C)o1 [RANITIDINE] : 3.3

For reference, reported RALB for O=C(OC[C@H]1O[C@@H](OC(=O)c2cc(O)c(O)c(OC(=O)c3cc(O)c(O)c(O)c3)c2)[C@H](OC(=O)c2cc(O)c(O)c(OC(=O)c3cc(O)c(O)c(O)c3)c2)[C@@H](OC(=O)c2cc(O)c(O)c(OC(=O)c3cc(O)c(O)c(O)c3)c2)[C@@H]1OC(=O)c1cc(O)c(O)c(OC(=O)c2cc(O)c(O)c(O)c2)c1)c1cc(O)c(O)c(OC(=O)c2cc(O)c(O)c(O)c2)c1 [TANNIC ACID] stands at 3.7

----------
Measured Fbg by item
- Species: Rattus norvegicus
- method_notes: Open TG-GATES - Regimen: Single
- Format: toxicity, organism-based, Sprague-Dawley
- Parameters: regimen Single, gender Male, age 6 weeks
- test_parameters: in vivo, po, 100 mg/kg, 9 h, tissue Blood, route gavage, dose level Low
Numbers only here, please. The scale is mg/dL.

COC(=O)C1=C(C)NC(C)=C(C(=O)OC)C1c1ccccc1[N+](=O)[O-] [NIFEDIPINE] : 292.2
CN/C(=N/CCSCc1nc[nH]c1C)NC#N [CIMETIDINE] : 246
Cc1nnc2n1-c1ccc(Cl)cc1C(c1ccccc1Cl)=NC2 [TRIAZOLAM] : 285.4
O=C(OC[C@H]1O[C@@H](OC(=O)c2cc(O)c(O)c(OC(=O)c3cc(O)c(O)c(O)c3)c2)[C@H](OC(=O)c2cc(O)c(O)c(OC(=O)c3cc(O)c(O)c(O)c3)c2)[C@@H](OC(=O)c2cc(O)c(O)c(OC(=O)c3cc(O)c(O)c(O)c3)c2)[C@@H]1OC(=O)c1cc(O)c(O)c(OC(=O)c2cc(O)c(O)c(O)c2)c1)c1cc(O)c(O)c(OC(=O)c2cc(O)c(O)c(O)c2)c1 [TANNIC ACID] : 217.4

Turning now to a further molecule:
The molecule identified as CNC(=C[N+](=O)[O-])NCCSCc1ccc(CN(C)C)o1 [RANITIDINE] registered its Fbg at 217.2

----------
Measured TP, listed per entry for reference.
- Species on record: Rattus norvegicus
- method_notes: Open TG-GATES - Regimen: Daily Repeat
- Type: toxicity, organism-based, Sprague-Dawley
- Set-up: regimen Daily Repeat, gender Male, age 6 weeks
- test_parameters: in vivo, po, 0 mg/kg, 72 h, tissue Plasma, route gavage, dose level Control, time 3 day
Please state the value followed by its unit.

CN(C)CCC(c1ccc(Cl)cc1)c1ccccn1 (centres undefined) [CHLORPHENIRAMINE] : 5.8 g/dL

The compound listed as CC(C)NNC(=O)c1ccncc1 [IPRONIAZID] has a reported TP of 5.5 g/dL

The reported value for O=C(OC[C@H]1O[C@@H](OC(=O)c2cc(O)c(O)c(OC(=O)c3cc(O)c(O)c(O)c3)c2)[C@H](OC(=O)c2cc(O)c(O)c(OC(=O)c3cc(O)c(O)c(O)c3)c2)[C@@H](OC(=O)c2cc(O)c(O)c(OC(=O)c3cc(O)c(O)c(O)c3)c2)[C@@H]1OC(=O)c1cc(O)c(O)c(OC(=O)c2cc(O)c(O)c(O)c2)c1)c1cc(O)c(O)c(OC(=O)c2cc(O)c(O)c(O)c2)c1 [TANNIC ACID] in terms of TP is 5.7 g/dL

The value of TP measured for the compound CCCc1cc(=O)[nH]c(=S)[nH]1 [PROPYLTHIOURACIL] turned out to be 6 g/dL

----------
- Organism: Rattus norvegicus
- method_notes: Open TG-GATES - Regimen: Single
- Assay type: toxicity, organism-based, Sprague-Dawley
- Set-up: regimen Single, gender Male, age 6 weeks
- test_parameters: in vivo, po, 0 mg/kg, 24 h, tissue Plasma, route gavage, dose level Control
metric: IP (mg/dL)
Kindly provide the numeric value in mg/dL only, without the unit symbol.

CN1C(=O)CCS(=O)(=O)C1c1ccc(Cl)cc1 (stereo not given) [CHLORMEZANONE] : 8.1
CCOc1ccc(NC(C)=O)cc1 [PHENACETIN] : 7.9
Nc1c2c(nc3ccccc13)CCCC2 [TACRINE] : 7.3
CS(=O)(=O)O.Cc1ccc(NC(=O)c2ccc(CN3CCN(C)CC3)cc2)cc1Nc1nccc(-c2cccnc2)n1 [IMATINIB MESYLATE] : 7.8
CCCc1cc(=O)[nH]c(=S)[nH]1 [PROPYLTHIOURACIL] : 7.9

Please turn your attention to the following entry.
// recorded IP for NC1=NC(=O)C(c2ccccc2)O1 (stereo not given) [PEMOLINE] : 8.2

----------
- Organism: Rattus norvegicus
- method_notes: Open TG-GATES - Regimen: Single
- Type: toxicity, organism-based, Sprague-Dawley
- Design: regimen Single, gender Male, age 6 weeks
- test_parameters: in vivo, po, 300 mg/kg, 24 h, tissue Blood, route gavage, dose level Middle
metric: Mono (%)
Please reply with the bare figure in % and do not write the unit itself.

CNC(=C[N+](=O)[O-])NCCSCc1ccc(CN(C)C)o1 [RANITIDINE] : 2.4
COC(=O)C1=C(C)NC(C)=C(C(=O)OC)C1c1ccccc1[N+](=O)[O-] [NIFEDIPINE] : 3.6
O=C(OC[C@H]1O[C@@H](OC(=O)c2cc(O)c(O)c(OC(=O)c3cc(O)c(O)c(O)c3)c2)[C@H](OC(=O)c2cc(O)c(O)c(OC(=O)c3cc(O)c(O)c(O)c3)c2)[C@@H](OC(=O)c2cc(O)c(O)c(OC(=O)c3cc(O)c(O)c(O)c3)c2)[C@@H]1OC(=O)c1cc(O)c(O)c(OC(=O)c2cc(O)c(O)c(O)c2)c1)c1cc(O)c(O)c(OC(=O)c2cc(O)c(O)c(O)c2)c1 [TANNIC ACID] : 8.2
CN/C(=N/CCSCc1nc[nH]c1C)NC#N [CIMETIDINE] : 2.2

Proceed to the following item.
Cc1nnc2n1-c1ccc(Cl)cc1C(c1ccccc1Cl)=NC2 [TRIAZOLAM] has a reported Mono of 2.6
